- System: K-Ras G12C (Homo sapiens (Human), UniProt P01116+P62937, G12C)
- Sequence (P01116-2 other isoform, or with tags, fused parts or gaps G12C): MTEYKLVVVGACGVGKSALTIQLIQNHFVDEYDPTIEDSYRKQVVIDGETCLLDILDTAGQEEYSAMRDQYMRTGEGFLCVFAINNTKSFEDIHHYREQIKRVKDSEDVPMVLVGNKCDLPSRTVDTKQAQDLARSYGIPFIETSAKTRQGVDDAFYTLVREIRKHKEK
- Sequence (P62937 whole entry): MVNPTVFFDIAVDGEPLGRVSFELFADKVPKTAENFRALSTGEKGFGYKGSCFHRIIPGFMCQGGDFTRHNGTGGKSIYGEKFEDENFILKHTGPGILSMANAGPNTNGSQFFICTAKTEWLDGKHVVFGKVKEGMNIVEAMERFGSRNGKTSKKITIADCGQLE
- Test method notes: Ras-Raf (BRAF RBD) disruption / FRET / MOA assay, KRAS G12C
- Type: biochemical
- Experimental parameters: KRAS G12C; Ras-Raf disruption/FRET/MOA assay; read-out: IC50* KRAS G12C FRET data
- Description: The purpose of this biochemical assay is to measure the ability of test compounds to facilitate ternary complex formation between a nucleotide-loaded Ras isoform and cyclophilin A; the resulting ternary complex disrupts binding to a BRAF^RBD construct, inhibiting Ras signaling through a RAF effector. Compound is present in plate wells as a 10-point 3-fold dilution series starting at a final concentration of 30 μM. […]
pIC50: −log10 of the molar value.
Field: pIC50. Provide a value for each of the compounds that follow.

# return recorded pIC50 for entry CCn1c(-c2cccnc2[C@H](C)OC)c2c3cc(ccc31)-c1cccc(c1)C[C@H](NC(=O)[C@H](C(C)C)N1CC[C@]3(CCN(C(=O)C#CC(C)(C)N(C)C)C3)C1=O)C(=O)N1CCC[C@H](N1)C(=O)OCC(C)(C)C2 (atropisomer, axis not shown) [Example A534]
> 8.00

# return recorded pIC50 for entry C=CC(=O)N1C[C@@H](C)N(C(=O)N(C)[C@H](C(=O)N[C@H]2Cc3nc(cs3)-c3ccc4c(c3)c(c(-c3cccnc3[C@H](C)OC)n4CC)CC(C)(C)COC(=O)[C@@H]3CCCN(N3)C2=O)C(C)C)C[C@H]1C (atropisomer, axis not shown) [Example A406]
6.00 to 7.00

# return recorded pIC50 for entry CC#CC(=O)N1C[C@H](C)[C@H](C(=O)N(C)[C@H](C(=O)N[C@H]2Cc3cccc(c3)-c3ccc4c(c3)c(c(-c3cccnc3[C@H](C)OC)n4CC)CC(C)(C)COC(=O)[C@@H]3CCCN(N3)C2=O)C2CCCC2)C1 (atropisomer, axis not shown) [Example A402]
6.00 to 7.00

# return recorded pIC50 for entry CCn1c(-c2cccnc2[C@H](C)OC)c2c3cc(ccc31)N1CCO[C@@H](C[C@H](NC(=O)[C@H](C(C)C)N3CC[C@@]4(CCN(C(=O)C#CC(C)(C)N(C)C)C4)C3=O)C(=O)N3CCC[C@H](N3)C(=O)OCC(C)(C)C2)C1 (atropisomer, axis not shown) [Example A614]
7.00 to 8.00

# return recorded pIC50 for entry C=CC(=O)N1C[C@@H]2C[C@H]1CN2C(=O)N(C)[C@H](C(=O)N[C@H]1Cc2nc(cs2)-c2ccc3c(c2)c(c(-c2cccnc2[C@H](C)OC)n3CC)CC(C)(C)COC(=O)[C@@H]2CCCN(N2)C1=O)C(C)C (atropisomer, axis not shown) [Example A409]
6.00 to 7.00

# return recorded pIC50 for entry C=CC(=O)NCCN1CCN(C(=O)N(C)[C@H](C(=O)N[C@H]2Cc3nc(cs3)-c3ccc4c(c3)c(c(-c3cccnc3[C@H](C)OC)n4CC)CC(C)(C)COC(=O)[C@@H]3CCCN(N3)C2=O)C(C)C)CC1 (atropisomer, axis not shown) [Example A582]
6.00 to 7.00

# return recorded pIC50 for entry C=CC(=O)N(C)[C@H](C(=O)N[C@H]1Cc2cc(O)cc(c2)-c2ccc3c(c2)c(c(-c2cccnc2COC)n3CC)CC(C)(C)COC(=O)[C@@H]2CCCN(N2)C1=O)C(C)C [Example A110]
6.00 to 7.00

# return recorded pIC50 for entry CCn1c(-c2cccnc2[C@H](C)OC)c2c3cc(ccc31)-c1cc(O)cc(c1)C[C@H](NC(=O)[C@H](C(C)C)N1CCC3(CN(C(=O)/C=C/CN(C)C)C3)C1=O)C(=O)N1CCC[C@H](N1)C(=O)OCC(C)(C)C2 (atropisomer, axis not shown) [Example A270]
> 8.00

* * *

- System: KRAS WT (Homo sapiens (Human), UniProt P01116+P62937)
- Sequence (P01116-2 other isoform, or with tags, fused parts or gaps): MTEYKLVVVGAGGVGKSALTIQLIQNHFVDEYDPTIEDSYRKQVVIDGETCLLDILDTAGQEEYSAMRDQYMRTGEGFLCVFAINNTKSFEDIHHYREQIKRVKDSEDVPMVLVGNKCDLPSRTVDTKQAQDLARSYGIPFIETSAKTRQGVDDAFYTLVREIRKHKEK
- Sequence (P62937 whole entry): as the sequence (P62937 whole entry) above
- Test method notes: Ras-Raf (BRAF RBD) disruption / FRET / MOA assay, KRAS WT
- Type: biochemical
- Experimental parameters: read-out: IC50* KRAS WT FRET data
Field: IC50. Provide a value for each of the compounds that follow.

Write IC50 of C=CC(=O)N1CC[C@H](C(=O)N(C)[C@H](C(=O)N[C@H]2Cc3nc(n(C)n3)-c3ccc4c(c3)c(c(-c3cccnc3[C@H](C)OC)n4CC)CC(C)(C)COC(=O)[C@@H]3CCCN(N3)C2=O)C(C)C)C1 (atropisomer, axis not shown) [Example A314] ; system used: KRAS WT (Homo sapiens (Human), UniProt P01116+P62937)
1 to 10 µM

Write IC50 of C=CC(=O)N1CC[C@H](C(=O)N(C)[C@H](C(=O)N[C@H]2Cc3cc(OC4O[C@H](CO)[C@@H](O)[C@H](O)[C@H]4O)cc(c3)-c3ccc4c(c3)c(c(-c3cccnc3COC)n4CC)CC(C)(C)COC(=O)[C@@H]3CCCN(N3)C2=O)C(C)C)C1 (some centres unmarked) [Example A234] ; system used: KRAS WT (Homo sapiens (Human), UniProt P01116+P62937)
> 10 µM

* * *

- System: KRAS G12D (Homo sapiens (Human), UniProt P01116+P62937, G12D)
- Sequence (P01116-2 other isoform, or with tags, fused parts or gaps G12D, one chain of several): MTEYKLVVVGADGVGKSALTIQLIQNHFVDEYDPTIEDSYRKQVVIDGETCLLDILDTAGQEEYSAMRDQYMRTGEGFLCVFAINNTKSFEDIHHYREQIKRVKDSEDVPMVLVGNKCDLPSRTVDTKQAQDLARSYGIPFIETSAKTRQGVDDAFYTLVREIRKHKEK
- Test method notes: Ras-Raf (BRAF RBD) disruption / FRET / MOA assay, KRAS G12D
- Type: biochemical
- Experimental parameters: Ras-Raf disruption/FRET/MOA assay; class symbols; read-out: KRAS G12D FRET data IC50
pIC50: −log10 of the molar value.
Measurement label: pIC50

# return recorded pIC50 for entry C=CC(=O)N1CCO[C@]2(CCN(C(=O)N(C)[C@H](C(=O)N[C@H]3Cc4nc(cs4)-c4ccc5c(c4)c(c(-c4cccnc4[C@H](C)OC)n5CC(F)(F)F)CC(C)(C)COC(=O)[C@@H]4CCCN(N4)C3=O)C(C)C)C2)C1 (atropisomer, axis not shown)
5.00 to 6.00

# return recorded pIC50 for entry CO[C@@H](C)c1ncccc1-c1c2c3cc(ccc3n1C)-c1cccc(c1)C[C@H](NC(=O)[C@H](C(C)C)N(C)C(=O)[C@H]1CCN(C(=O)C#CCN3CCOCC3)C1)C(=O)N1CCC[C@H](N1)C(=O)OCC(C)(C)C2 (atropisomer, axis not shown)
< 5.00

# return recorded pIC50 for entry CCn1c(-c2cccnc2[C@H](C)OC)c2c3cc(ccc31)-c1cc(O)cc(c1)C[C@H](NC(=O)[C@H](C(C)C)N1CCC3(CN(C(=O)/C=C/CN(C)C)C3)C1=O)C(=O)N1CCC[C@H](N1)C(=O)OCC(C)(C)C2 (atropisomer, axis not shown)
6.00 to 7.00

# return recorded pIC50 for entry C=CC(=O)N1CC[C@H](C(=O)N(C)[C@H](C(=O)N[C@H]2Cc3cc(ccn3)-c3ccc4c(c3)c(c(-c3cccnc3COC)n4CC)CC(C)(C)COC(=O)[C@@H]3CCCN(N3)C2=O)C(C)C)C1
< 5.00

# return recorded pIC50 for entry CCn1c(-c2cnccc2[C@H](C)OC)c2c3cc(ccc31)-c1cc(O)cc(c1)C[C@H](NC(=O)[C@H](C(C)C)N(C)C(=O)[C@H]1CCN(C(=O)C#CCN(C)C)C1)C(=O)N1CCC[C@H](N1)C(=O)OCC(C)(C)C2
6.00 to 7.00

# return recorded pIC50 for entry C=CC(=O)N1C[C@@H](C)N(C(=O)N(C)[C@H](C(=O)N[C@H]2Cc3nc(cs3)-c3ccc4c(c3)c(c(-c3cccnc3[C@H](C)OC)n4CC)CC(C)(C)COC(=O)[C@@H]3CCCN(N3)C2=O)C(C)C)[C@@H](C)C1 (atropisomer, axis not shown)
6.00 to 7.00

# return recorded pIC50 for entry CCn1c(-c2cccnc2)c2c3cc(ccc31)-c1cccc(c1)C[C@H](NC(=O)[C@H](C(C)C)N(C)C(=O)[C@H]1CCN(C(=O)C#CCN(C)C)C1)C(=O)N1CCC[C@H](N1)C(=O)OCC(C)(C)C2
5.00 to 6.00

# return recorded pIC50 for entry C=CC(=O)Nc1cnc(C(=O)N(C)[C@H](C(=O)N[C@H]2Cc3cccc(c3)-c3ccc4c(c3)c(c(-c3cccnc3[C@H](C)OC)n4CC)CC(C)(C)COC(=O)[C@@H]3CCCN(N3)C2=O)C(C)C)n1C (atropisomer, axis not shown) [Example A524]
< 5.00

# return recorded pIC50 for entry C=CC(=O)N1CCC2(CCCN(C(=O)N(C)[C@H](C(=O)N[C@H]3Cc4nc(cs4)-c4ccc5c(c4)c(c(-c4cccnc4[C@H](C)OC)n5CC)CC(C)(C)COC(=O)[C@@H]4CCCN(N4)C3=O)C(C)C)C2)CC1 (atropisomer, axis not shown)
6.00 to 7.00

# return recorded pIC50 for entry CCn1c(-c2cccnc2[C@H](C)OC)c2c3cc(ccc31)-c1cccc(c1)C[C@H](NC(=O)[C@H](C(C)C)N1CC[C@@]3(CCN(C(=O)C#CC(C)(C)N(C)C)C3)C1=O)C(=O)N1CCC[C@H](N1)C(=O)OCC(C)(C)C2 (atropisomer, axis not shown)
< 5.00

# return recorded pIC50 for entry C=CC(=O)N1CC[C@H](C(=O)N(C)[C@H](C(=O)N[C@H]2Cc3nc(ns3)-c3ccc4c(c3)c(c(-c3cncnc3)n4CC)CC(C)(C)COC(=O)[C@@H]3CCCN(N3)C2=O)C(C)C)C1
< 5.00

# return recorded pIC50 for entry CO[C@@H](C)c1ncccc1-c1c2c3cc(ccc3n1CC(F)(F)F)-c1cc(cc(C(F)F)c1)C[C@H](NC(=O)[C@H](C(C)C)N(C)C(=O)[C@H]1CCN(C(=O)C#CC(C)(C)N3CCC3)C1)C(=O)N1CCC[C@H](N1)C(=O)OCC(C)(C)C2 (atropisomer, axis not shown)
5.00 to 6.00

# return recorded pIC50 for entry C=C(OC)C(=O)N1CC(N(C)C(=O)N(C)[C@H](C(=O)N[C@H]2Cc3nc(cs3)-c3ccc4c(c3)c(c(-c3cccnc3[C@H](C)OC)n4CC)CC(C)(C)COC(=O)[C@@H]3CCCN(N3)C2=O)C(C)C)C1 (atropisomer, axis not shown)
5.00 to 6.00

# return recorded pIC50 for entry CCn1c(-c2ccccc2CN(C)C)c2c3cc(ccc31)-c1cc(O)cc(c1)C[C@H](NC(=O)[C@H](C(C)C)N(C)C(=O)c1ccc(NC(=O)/C=C/CN(C)C)cc1)C(=O)N1CCC[C@H](N1)C(=O)OCC(C)(C)C2
< 5.00

# return recorded pIC50 for entry C=CC(=O)N(C)CCN1CCN(C(=O)N(C)[C@H](C(=O)N[C@H]2Cc3cccc(c3)-c3ccc4c(c3)c(c(-c3cccnc3[C@H](C)OC)n4CC)CC(C)(C)COC(=O)[C@@H]3CCCN(N3)C2=O)C(C)C)CC1 (atropisomer, axis not shown)
5.00 to 6.00
